molecular target: CXCR4 (Homo sapiens, UniProt P61073); assay: [125I]-CXCL12 competition binding on membranes from HEK293T cells transiently expressing CXCR4; details: purified ligands; highest Nanobody test concentration 0.5 μM
Sequence (P61073 whole entry): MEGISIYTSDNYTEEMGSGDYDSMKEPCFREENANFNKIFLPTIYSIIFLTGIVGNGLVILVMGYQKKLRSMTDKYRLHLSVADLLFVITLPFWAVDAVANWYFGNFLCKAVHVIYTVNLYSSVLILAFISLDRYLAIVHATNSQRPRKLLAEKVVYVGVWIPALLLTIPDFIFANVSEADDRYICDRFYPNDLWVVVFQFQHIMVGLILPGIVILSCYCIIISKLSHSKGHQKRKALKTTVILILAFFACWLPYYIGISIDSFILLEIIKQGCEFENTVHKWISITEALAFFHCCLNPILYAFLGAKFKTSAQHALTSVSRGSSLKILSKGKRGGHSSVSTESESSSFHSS
propertyLabel: displacement of specifically bound [125I]-CXCL12

# molecule, assayValue
data = [
    ("237D2: Nanobody (VHH) raised against human CXCR4, SEQ ID NO: 241 (protein, Nanobody, Nanobody constructs or fragments thereof) VHH: EVQLVESGGGLVQPGGSLRLSCAASGFTFDDYAMSWVRQAPGKGLEWVSAISWNGGSTDYADSVKGRFTISRDNAKNTLYLQMNSLKSEDTAEYYCARDQGPFYSGTYYYTRQYGYRGQGTQVTVSS", "unable to displace"),
    ("238D2: Nanobody (VHH) raised against human CXCR4, SEQ ID NO: 238 (protein, Nanobody, Nanobody constructs or fragments thereof) VHH: EVQLVESGGGLVQTGGSLRLSCAASGFTFSSYAMSWVRQAPGKGLEWVSGIKSSGDSTRYAGSVKGRFTISRDNAKNMLYLQMYSLKPEDTAVYYCAKSRVSRTGLYTYDNRGQGTQVTVSS", "fully displace"),
    ("238D4: Nanobody (VHH) raised against human CXCR4, SEQ ID NO: 239 (protein, Nanobody, Nanobody constructs or fragments thereof) VHH: EVQLMESGGGLVQAGGSLRLSCAASGRTFNNYAMGWFRRAPGKEREFVAAITRSGVRSGVSAIYGDSVKDRFTISRDNAKNTLYLQMNSLKPEDTAVYTCAASAIGSGALRRFEYDYSGQGTQVTVSS", "fully displace"),
    ("237D1: Nanobody (VHH) raised against human CXCR4, SEQ ID NO: 249 (protein, Nanobody, Nanobody constructs or fragments thereof) VHH: EVQLVESGGGLAQPGGPLRLTCEASGVIYSVNDMGWYRQAPGKQRELVAVITSGGGTNYVDSVKGRFTISGDNRKKTVYLQMNSLKPEDTAVYYCSIYYSSGISTLRSWGQGTQVTVSS", "unable to displace"),
    ("238C5: Nanobody (VHH) raised against human CXCR4, SEQ ID NO: 243 (protein, Nanobody, Nanobody constructs or fragments thereof) VHH: EVQLMESGGGLVQAGGSLRLACAASGFTFEDYAIGWFRKAPGKEREGVSCISGSDGSTTYADSVKGRFTISTDNAKNTVYLEMNSLKPEDTAVYYCAQQYGVGGRVVCPGPYEYDVWGQGTQVTVSS", "unable to displace"),
]

Challenge: Bench note: what displacement of specifically bound [125I]-CXCL12 did 237G7: Nanobody (VHH) raised against human CXCR4, SEQ ID NO: 251 (protein, Nanobody, Nanobody constructs or fragments thereof) VHH: EVQLVESGGGLVQPGGSLRLSCAASSFIGNYHAIVWLRQAPGKELEGVSCITSRDSITYYASFVKGRFTISRDDAKNTVYLQMNNLKPEDTAVYYCAVBTSMTCPTLIVRFNYRGQGTQVTVSS show?
Response given: unable to displace

Values were extracted from patent US9212226B2.
